Test system: Mycolicibacterium smegmatis
Experiment: Antibiofilm activity against Mycobacterium smegmatis mc2 155 ATCC 700084 assessed as dispersion of preformed biofilms measured after 24 hrs by crystal violet reporter assay
Type: functional, organism-based
Details: MC2 155 ATCC 700084, 24 h
MEASURED PROPERTY: EC50 (µM)
Write it as a number; the unit µM goes unstated.

So for CN(C)c1nccc(-c2c[nH]c3ccc(Br)cc23)n1 , the logged EC50 turned out to be 35.7

So for Nc1nccc(-c2c[nH]c3cc(Br)ccc23)n1 , the logged EC50 turned out to be 51

----------
Tested on: Mycolicibacterium smegmatis
Assay: Potentiation of Cefotaxime-induced antibacterial activity against Mycobacterium smegmatis mc2 155 ATCC 700084 assessed as fold reduction in Cefotaxime MIC at 60 uM incubated for 48 hrs by alamarblue dye based broth microdilution method
Type: functional
MEASURED PROPERTY: fold change (FC)
The reply should be a number, written without any unit.

Sure, the documented fold change (FC) for Brc1ccc2[nH]cc(-c3ccnc(NCc4ccccc4)n3)c2c1 is 2

fold change (FC) measured on CNc1nccc(-c2c[nH]c3ccc(Br)cc23)n1 = 2

Value of measured fold change (FC) for the entry Cn1cc(-c2ccnc(N)n2)c2cc(Br)ccc21 : 8

The molecule Nc1nccc(-c2c[nH]c3cc(I)ccc23)n1 showed fold change (FC) equal to 0

Lab book: fold change (FC) of Nc1nccc(-c2c[nH]c3cc(Br)ccc23)n1 noted as 0

Value of fold change (FC) reported for the molecule CCNc1nccc(-c2c[nH]c3ccc(Br)cc23)n1 is 0

Lab note: CN(C)c1nccc(-c2c[nH]c3ccc(Br)cc23)n1 gave fold change (FC) of 0

Form field fold change (FC), entry Nc1nccc(-c2c[nH]c3ccc(I)cc23)n1 : 2

----------
Tested on: Mycolicibacterium smegmatis
Experiment: Antibiofilm activity against Mycobacterium smegmatis mc2 155 ATCC 700084 assessed as dispersion of preformed biofilms measured after 24 hrs by crystal violet reporter assay
Assay type: functional, organism-based
Conditions: MC2 155 ATCC 700084, 24 h
Please provide measured EC50 for the entries that follow.

Kindly note: Mycolicibacterium smegmatis, CC(C)Cn1cc(-c2ccnc(N)n2)c2ccc(Br)cc21 , EC50 value reported: > 50 µM

# Nc1nccc(-c2c[nH]c3ccc(F)cc23)n1 with Mycolicibacterium smegmatis: EC50 is > 50 µM

EC50 of Nc1nccc(-c2c[nH]c3cc(F)ccc23)n1 , assay on Mycolicibacterium smegmatis, is > 50 µM

Observed EC50 on Mycolicibacterium smegmatis, entry CCCn1cc(-c2ccnc(N)n2)c2ccc(Br)cc21 , equals > 50 µM

The molecule CCCn1cc(-c2ccnc(N)n2)c2cc(Br)ccc21 on Mycolicibacterium smegmatis: EC50 was > 50 µM

Param item: CNc1nccc(-c2c[nH]c3ccc(Br)cc23)n1 ; param system: Mycolicibacterium smegmatis; output EC50: 45 µM

----------
Test system: Mycolicibacterium smegmatis
Assay: Potentiation of oxacillin-induced antibacterial activity against Mycobacterium smegmatis mc2 155 ATCC 700084 assessed as fold reduction in oxacillin MIC at 60 uM incubated for 48 hrs by alamarblue dye based broth microdilution method
Type: functional
MEASURED PROPERTY: fold change (FC)
API note: the answer field is a bare number with no unit suffix.

# fold change (FC) (compound: CN(C)c1nccc(-c2c[nH]c3ccc(Br)cc23)n1 ) is 0

Short answer for Nc1nccc(-c2c[nH]c3ccc(I)cc23)n1 : fold change (FC) was 0

So, Cn1cc(-c2ccnc(N)n2)c2cc(Br)ccc21 ? Its fold change (FC) was 2

fold change (FC) recorded for this compound, Nc1nccc(-c2c[nH]c3cc(I)ccc23)n1 , is 0

The compound CNc1nccc(-c2c[nH]c3ccc(Br)cc23)n1 showed fold change (FC) equal to 2

Short answer for CCNc1nccc(-c2c[nH]c3ccc(Br)cc23)n1 : fold change (FC) was 0

For record Nc1nccc(-c2c[nH]c3cc(Br)ccc23)n1 the listed fold change (FC) is 0

Recorded fold change (FC) (compound Brc1ccc2[nH]cc(-c3ccnc(NCc4ccccc4)n3)c2c1 ): 2

----------
Provide the recorded EC50 for the entries that follow.
System: Mycolicibacterium smegmatis
Experiment: Antibiofilm activity against Mycobacterium smegmatis mc2 155 ATCC 700084 assessed as dispersion of preformed biofilms measured after 24 hrs by crystal violet reporter assay
Format: functional, organism-based
Details: MC2 155 ATCC 700084, 24 h

# EC50 measured on Mycolicibacterium smegmatis for item Nc1nccc(-c2c[nH]c3cccc(Br)c23)n1 = > 50 µM

The recorded EC50 with Mycolicibacterium smegmatis for Cc1ccc2[nH]cc(-c3ccnc(N)n3)c2c1 was > 50 µM

// EC50 (Mycolicibacterium smegmatis) for Nc1nccc(-c2c[nH]c3ccc(Cl)cc23)n1 = > 50 µM

The value of EC50 recorded for Nc1ncc(-c2c[nH]c3ccc(F)cc23)[nH]1 when tested on Mycolicibacterium smegmatis reads > 50 µM

The recorded EC50 with Mycolicibacterium smegmatis for Nc1nccc(-c2c[nH]c3ccc(Br)cc23)n1 was > 50 µM

Test item CCCn1cc(-c2ccnc(N)n2)c2ccc(I)cc21 ; Mycolicibacterium smegmatis; reported EC50 was > 50 µM

----------
Test system: Mycolicibacterium smegmatis
Experiment: Antibiofilm activity against Mycobacterium smegmatis mc2 155 ATCC 700084 assessed as dispersion of preformed biofilms measured after 24 hrs by crystal violet reporter assay
Type: functional, organism-based
Conditions: MC2 155 ATCC 700084, 24 h
Would you kindly list EC50 for each of these molecules?

// sample CCn1cc(-c2ccnc(N)n2)c2cc(Br)ccc21 , its EC50 was > 50 µM

// sample Brc1ccc2[nH]cc(-c3ccnc(NCc4ccccc4)n3)c2c1 , its EC50 was 28.3 µM

Just so you know, measured EC50 for Nc1ncc(-c2c[nH]c3cc(Cl)ccc23)[nH]1 came out at 33.7 µM

// EC50 lookup, molecule = CCCCn1cc(-c2ccnc(N)n2)c2cc(Br)ccc21 , result: > 50 µM

Nc1nccc(-c2c[nH]c3ccccc23)n1 yielded EC50 of > 50 µM

Cn1cc(-c2ccnc(N)n2)c2cc(Br)ccc21 has a reported EC50 of > 50 µM
